# Species: Rattus norvegicus
# protocol-details: DrugMatrix - Regimen: Daily Repeat
# Format: toxicity, organism-based, Sprague-Dawley
# Design: regimen Daily Repeat, gender Male, age 6-8 weeks
# experimental-setup: in vivo, po, 0 mg/kg, 72 h, tissue Blood, route oral GAVAGE, dose level Control, time 3 day, vehicle 100 % WATER
measured-parameter: MEAN CORPUSCULAR VOLUME

> print(dat)
                                   compound    result
1         O=C1NC(=O)C(c2ccccc2)(c2ccccc2)N1     63 fL
2                   CC(C)(S)[C@@H](N)C(=O)O   61.8 fL
3   Cn1cnc([N+](=O)[O-])c1Sc1ncnc2nc[nH]c12  62.07 fL
4  CC(CCc1ccccc1)NCC(O)c1ccc(O)c(C(N)=O)c1 (centres undefined)  62.05 fL
5  CC1COc2c(N3CCN(C)CC3)c(F)cc3c(=O)c(C(=O)O)cn1c23 (centres undefined)  62.95 fL
6  COc1cccc(C2(O)CCCCC2CN(C)C)c1 (centres undefined)  62.53 fL
7  CN1CCN(C(=O)OC2c3nccnc3C(=O)N2c2ccc(Cl)cn2)CC1 (centres undefined)  63.52 fL
8  CC1(C)S[C@@H]2[C@H](NC(=O)[C@H](N)c3ccc(O)cc3)C(=O)N2[C@H]1C(=O)O  64.23 fL
9           Cc1cc(NS(=O)(=O)c2ccc(N)cc2)no1  63.25 fL
